Recorded growth inhibition, one value per entry.
Assay notes: NCI Yeast Anticancer Drug Screen. Data for the rad50 strain (AID 155);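 further: 0% = growth of vehicle-only cultures of the same strain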
Settings: S. cerevisiae rad50 strain growth inhibition; at 100.0 µM; active compounds read high
Compounds without any hit were thinned out: in the full panel of roughly 79,000, 15% have a hit.
// note: answer is a bare numeric in %

CC[C@]1(O)C[C@H]2CN(CCc3c([nH]c4ccccc34)[C@@](C(=O)OC)(c3cc4c(cc3OC)N(C)[C@H]3[C@@](O)(C(=O)OC)[C@H](OC(C)=O)[C@]5(CC)C=CCN6CC[C@]43[C@@H]65)C2)C1 | -5
CC1=Cc2ccc(C)cc2C(=O)C1=O | 98

Fill in growth inhibition for record `CCSc1c2ccccc2c(-c2nc(F)nc(F)n2)n1CCc1ccccc1`
96

Provide one value: measured growth inhibition of `O=CC(=C(I)I)c1ccccc1`
97

Please report growth inhibition for the following molecule: CCCCCCCCCCCCOC1C(COCCN2CCCC2)OC2OC(C)(C)OC21 (stereo unspecified)
98

Give a short answer stating reported growth inhibition for CC1=NN(C(=O)CC(=O)N(C(=O)c2ccccc2)c2ccc(Cl)cc2)C(=O)C1N=Nc1ccc([N+](=O)[O-])cc1 (stereo unspecified) .
74

====

Assay notes: NCI Yeast Anticancer Drug Screen. Data for the rad50 strain (AID 155);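 further: 0% = growth of vehicle-only cultures of the same strain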
Settings: S. cerevisiae rad50 strain growth inhibition; at 11.0 µM
Compounds without any hit were thinned out: in the full panel of roughly 79,000, 15% have a hit. Calls of active or inactive are those of the source. No stated cut-off is given here; in the data, active means growth inhibition above about 70%; inactive means the rest.
Select the matching outcome among active, inactive

Below are worked cases with known answers.
CCN(CC)CCSc1c2ccccc2nc2cc(NCC(=O)Nc3ccccc3-c3ccccc3NC(=O)CNc3ccc4c(SCCN(CC)CC)c5ccccc5nc4c3)ccc12 | inactive
CN(C)CCn1c2ccccc2c2nc3cc4ccccc4cc3nc21 | active
CNc1ccc2[nH]c3ccccc3c2c1 | inactive
c1cncc(C(Nc2cccc3cccnc23)Nc2cccc3cccnc23)c1 | inactive
CN(C)N=Nc1ccc(NC=O)cc1 | inactive
CN(C)c1ccc(C(c2ccc(Cl)cc2)c2ccc(N(C)C)cc2)cc1 | active
Cc1[nH]nc(C(F)(F)F)c1N=NN(C)C | active
CC1C=CN(N(C)C)C2=C1C(=O)c1cnccc1C2=O (centres undefined) | active

Test call, this compound: `COc1ccc2nc(N/N=C/c3sccc3C)cc(C)c2c1`
inactive

Could you kindly confirm the outcome this assay logged for `CCOC(=O)C1=C(C)NC(C)=C(C(=O)OCC)C1c1ccc(Cl)cc1` ?
active

How was `Cc1ccnc(NS(=O)(=O)c2ccc(Nc3c4ccccc4nc4ccccc34)cc2)n1` classified in this test?
active

Kindly provide the recorded test outcome for the following compound: CCC(C)/C(C)=N/NC(N)=O (centres undefined)
inactive

Would you mind telling me which call this test gave `Cc1ccc(N(C=O)c2c([N+](=O)[O-])cc([N+](=O)[O-])c3c2=[N+]([O-])CN=3)cc1` ?
inactive

// return assay outcome for `CN(C)c1ccc(/C=C/c2ccnc3ccc4ccccc4c23)cc1`
inactive

For this compound, state the assay outcome: `Cn1c(COc2ccc(/C=N/NC(=O)CCC(=O)N/N=C/c3ccc(OCc4c[n+]5ccccc5n4C)cc3)cc2)c[n+]2ccccc12`
inactive

For Cc1ccccc1C1=C(CC(=O)O)c2ccccc2CC1C (centres undefined) , which call appears in the assay record?
inactive

Recorded call for `Cc1ccc(SSc2ccc(C)cc2[N+](=O)[O-])c([N+](=O)[O-])c1` ?
inactive

What is the recorded call for this compound in the test? `COc1ccc(C(=O)OCCc2ccccc2)cc1`
inactive

Hey, what did the test say about `CC1=Cc2ccc(C)cc2C(=O)C1=O` ?
inactive

Test call, this compound: `Nc1c([N+](=O)[O-])cc2c3c(cccc13)CC2`
active

For `CCOc1nc(OCC)nc(-c2cccn2-c2ccccc2)n1` , what call appears in the results of this test?
inactive

Hey, what did the test say about `O=C(Nn1c(-c2ccccc2)nc2ccccc2c1=O)c1ccc(Cl)cc1` ?
inactive

Which result was noted for this compound in the test: `O=CC(=C(I)I)c1ccccc1`
active

Assay outcome for `O=[N+]([O-])c1cccc2nc3ccccc3c(NCCC[N+]3([O-])CCOCC3)c12` : what was it?
active

Could you check what this test reported for `O=C(O)/C=C\C(=O)NNc1ccc(Br)cc1` ?
active

Kindly provide the recorded test outcome for the following compound: `COc1ccc2c(C)cc(N/N=C/c3sccc3C)nc2c1`
inactive

====

Assay notes: NCI Yeast Anticancer Drug Screen. Data for the wt2 strain (AID 169);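 further: 0% = growth of vehicle-treated yeast cultures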
Settings: S. cerevisiae wt2 strain growth inhibition; at 3.7 µM; active compounds read high
This is part of a sample that, as a whole, favours compounds with a hit. Of some 79,000 tested, about 15% had one in any assay. Activity calls are given as the source filed them. Cut-off read from the data, not from the text of the source: active = growth inhibition above about 70%; inactive = the rest.
As shown below, each of these compounds has a reported growth inhibition value.

O=C(Nc1ccn(C2CC(O)C(COC(c3ccccc3)(c3ccccc3)c3ccccc3)O2)c(=O)n1)c1ccccc1 (stereo not drawn) | 1% (inactive)
CCOC(=O)C1=C(C)NC(C)=C(C(=O)OCC)C1c1cccc([N+](=O)[O-])c1 | -44% (inactive)

Please turn your attention to the following entry.
Answer with reported growth inhibition of `CN(C)N1C(=O)SCC(c2ccccc2)(c2ccccc2)C1=O`
-3% (inactive)

====

Assay notes: NCI Yeast Anticancer Drug Screen. Data for the bub3 strain (AID 167)
Settings: S. cerevisiae bub3 mutant strain, at 1.2 µM, active compounds read high
About 79,000 compounds went through this panel and 15% of them were active in at least one assay; those are over-represented in the sample as a whole.
Each item that follows carries a reported growth inhibition.
Just the number please, in %, no unit attached.

Note down growth inhibition recorded for `Cc1cc(NCCCN(C)C)c2ccc3c(ccc4c(NCCCN(C)C)cc(C)nc43)c2n1`
1

Write down growth inhibition measured for item CC(C)(C)[Si](C)(C)OCC1OC(n2cnc3c(N)ncnc32)C2OC(=S)OC12 (stereo unspecified)
0

Give the measured growth inhibition for `O=C(Cc1ccccc1)c1ccc(O)cc1`
-11

Given the compound `Clc1ccc(C(c2ccc(Cl)cc2)N2CCNCC2)cc1` , write its reported growth inhibition.
1

Write down growth inhibition measured for item OC(c1ccc(Br)cc1)(c1cccs1)C1CC1 (stereo unspecified)
38

====

Examples of compounds with documented growth inhibition follow.
Assay notes: NCI Yeast Anticancer Drug Screen. Data for the sgs1 strain (AID 173);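 further: 0% = growth of vehicle-only control cultures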
Settings: S. cerevisiae sgs1 mutant, at 1.2 µM, active compounds read high
This is part of a sample that, as a whole, favours compounds with a hit. Of some 79,000 tested, about 15% had one in any assay.
I only need the number, in %, no unit after it.

CCN(CC)c1ccc(N=Nc2cc(S(=O)(=O)O)ccc2O)c(O)c1 | -13
Nc1ccc2cc(Br)c3ccccc3c2c1 | -2
CC(C)(C)[Si](C)(C)OCC1OC(n2cnc3c(N)ncnc32)C2OC(=S)OC12 (stereo unspecified) | -1
CCOC(=O)/C=C1\CCCn2c1ncc(C(=O)OCC)c2=O | 3
Oc1ccc(Br)cc1C=Nc1cccc(C(F)(F)F)c1 | 14
c1cncc(C(Nc2cccc3cccnc23)Nc2cccc3cccnc23)c1 | 11
O=C(O)[C@H]1[C@@H](C2CCCCC2)O[C@@H](C2CCCCC2)O[C@H]1C(F)(F)F | -2
Cc1nc2ccccc2c(=O)n1NC(=O)c1ccc(CS)cc1 | 15
CCN(CC)c1cccc(Nc2nc3ccccc3s2)c1 | 8
CCOc1ccc2ccc3cccnc3c2n1 | -3

Tell me its growth inhibition given `Cc1cccc[c]1[Sn]([Cl])([S]/C(C#N)=N/N=C/c1ccc(N(C)C)cc1)[c]1ccccc1C` as the entry.
-1

Read off the recorded growth inhibition for `Oc1ccc(Cc2nccc3cc(O)c(O)cc23)cc1O`
40

====

Assay notes: NCI Yeast Anticancer Drug Screen. Data for the sgs1 mgt1 strain (AID 161);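 further: 0% = growth of cultures given vehicle only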
Settings: S. cerevisiae sgs1 mgt1 strain, at 50.0 µM, active compounds read high
The panel holds about 79,000 compounds, 15% with a hit somewhere; the sample as a whole holds those more often.
Threshold rule: growth inhibition greater than or equal to 90% is rule met; below that, rule not met.

Some solved cases for reference:
CC1(C)CC(=O)C(C(CC(c2ccccc2)c2cc3c(cc2O)OCO3)C2=C(O)CC(C)(C)CC2=O)=C(O)C1 (stereo unspecified) | rule met
CC(C)c1ccc(C2NC(=S)NC3=C2c2ccccc2C3=O)cc1 (stereo unspecified) | rule not met
Cn1c(COc2ccc(/C=N/NC(=O)CCC(=O)N/N=C/c3ccc(OCc4c[n+]5ccccc5n4C)cc3)cc2)c[n+]2ccccc12 | rule not met
S=c1[nH]nc(Cc2ccccc2)c(=S)[nH]1 | rule not met

Note: attention shifts to another entry.
Is reported growth inhibition greater than or equal to 90% here: `Cc1c2ccncc2c(C)c2c1oc1ccccc12`
rule not met

====

Assay notes: NCI Yeast Anticancer Drug Screen. Data for the wt2 strain (AID 169);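 further: 0% = growth of vehicle-treated yeast cultures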
Settings: S. cerevisiae wt2 strain growth inhibition; at 1.2 µM; active compounds read high
Compounds without any hit were thinned out: in the full panel of roughly 79,000, 15% have a hit. Active and inactive are the calls of the source. No stated cut-off is given here; in the data, active means growth inhibition above about 70%; inactive means the rest.
Readout kind: growth inhibition

O=C(CCCN1CCC2(CC1)OC(=O)N(c1ccccc1)C2=O)c1ccccc1 | 7% (inactive)
O=[N+]([O-])C(=C(NCc1ccccc1)NCc1ccccc1)C(Cl)=C(Cl)Cl | 1% (inactive)

Read off the recorded growth inhibition for `O=S(=O)(Oc1c(Cl)cc(Cl)cc1Cl)c1ccccc1`
-1% (inactive)

Tell me growth inhibition reported for COc1cc(C(C)C(C(=O)O)C(=O)C(=O)O)cc(OC)c1OC (configuration not stated)
1% (inactive)

Specify reported growth inhibition for the compound shown: `C#CC1=CC(=O)C(OC)=CC1=O`
-6% (inactive)

Respond only with growth inhibition recorded for `CN(C)c1ccc(/C=C/c2ccnc3ccc4ccccc4c23)cc1`
-6% (inactive)

Look up growth inhibition of `COC1=C(N=[N+]=[N-])C(=O)c2ncccc2C1=O` and report it.
-55% (inactive)
